Recorded DC50, one value per entry.
biological target: GSPT1 (Homo sapiens (Human), UniProt P15170+Q96SW2); experiment: Immunofluorescence assay for GSPT1 degradation in CAL-Si cells; format: cell-based; conditions: CAL-Si cells, treated 6 hours, read-out: Code, activity for GSPT1 degradation (DC50)
Sequence (P15170 whole entry): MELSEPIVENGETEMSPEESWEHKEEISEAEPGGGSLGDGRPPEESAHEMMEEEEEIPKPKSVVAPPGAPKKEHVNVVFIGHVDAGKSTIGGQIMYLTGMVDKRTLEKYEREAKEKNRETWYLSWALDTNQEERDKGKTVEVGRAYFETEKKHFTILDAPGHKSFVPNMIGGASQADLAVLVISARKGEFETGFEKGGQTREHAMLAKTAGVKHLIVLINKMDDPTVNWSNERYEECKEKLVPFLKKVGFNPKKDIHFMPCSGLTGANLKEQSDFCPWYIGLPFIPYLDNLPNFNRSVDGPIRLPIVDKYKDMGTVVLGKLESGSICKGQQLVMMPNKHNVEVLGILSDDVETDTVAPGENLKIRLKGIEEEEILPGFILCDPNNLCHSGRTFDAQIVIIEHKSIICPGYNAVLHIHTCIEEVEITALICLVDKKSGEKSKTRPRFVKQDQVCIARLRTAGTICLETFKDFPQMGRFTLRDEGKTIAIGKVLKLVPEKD
Sequence (Q96SW2 whole entry): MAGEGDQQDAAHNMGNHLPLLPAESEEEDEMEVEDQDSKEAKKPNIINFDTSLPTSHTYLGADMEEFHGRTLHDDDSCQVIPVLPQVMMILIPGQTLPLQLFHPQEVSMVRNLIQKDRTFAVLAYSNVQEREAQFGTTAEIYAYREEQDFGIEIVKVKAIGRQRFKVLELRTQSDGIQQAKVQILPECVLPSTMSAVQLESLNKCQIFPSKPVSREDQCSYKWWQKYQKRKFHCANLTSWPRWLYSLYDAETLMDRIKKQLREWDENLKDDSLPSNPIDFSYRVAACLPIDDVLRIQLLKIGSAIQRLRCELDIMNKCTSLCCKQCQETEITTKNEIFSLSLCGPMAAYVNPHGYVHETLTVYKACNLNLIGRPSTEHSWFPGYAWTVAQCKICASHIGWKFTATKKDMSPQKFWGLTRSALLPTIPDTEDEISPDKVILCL
Sequence (Q16531 whole entry partner): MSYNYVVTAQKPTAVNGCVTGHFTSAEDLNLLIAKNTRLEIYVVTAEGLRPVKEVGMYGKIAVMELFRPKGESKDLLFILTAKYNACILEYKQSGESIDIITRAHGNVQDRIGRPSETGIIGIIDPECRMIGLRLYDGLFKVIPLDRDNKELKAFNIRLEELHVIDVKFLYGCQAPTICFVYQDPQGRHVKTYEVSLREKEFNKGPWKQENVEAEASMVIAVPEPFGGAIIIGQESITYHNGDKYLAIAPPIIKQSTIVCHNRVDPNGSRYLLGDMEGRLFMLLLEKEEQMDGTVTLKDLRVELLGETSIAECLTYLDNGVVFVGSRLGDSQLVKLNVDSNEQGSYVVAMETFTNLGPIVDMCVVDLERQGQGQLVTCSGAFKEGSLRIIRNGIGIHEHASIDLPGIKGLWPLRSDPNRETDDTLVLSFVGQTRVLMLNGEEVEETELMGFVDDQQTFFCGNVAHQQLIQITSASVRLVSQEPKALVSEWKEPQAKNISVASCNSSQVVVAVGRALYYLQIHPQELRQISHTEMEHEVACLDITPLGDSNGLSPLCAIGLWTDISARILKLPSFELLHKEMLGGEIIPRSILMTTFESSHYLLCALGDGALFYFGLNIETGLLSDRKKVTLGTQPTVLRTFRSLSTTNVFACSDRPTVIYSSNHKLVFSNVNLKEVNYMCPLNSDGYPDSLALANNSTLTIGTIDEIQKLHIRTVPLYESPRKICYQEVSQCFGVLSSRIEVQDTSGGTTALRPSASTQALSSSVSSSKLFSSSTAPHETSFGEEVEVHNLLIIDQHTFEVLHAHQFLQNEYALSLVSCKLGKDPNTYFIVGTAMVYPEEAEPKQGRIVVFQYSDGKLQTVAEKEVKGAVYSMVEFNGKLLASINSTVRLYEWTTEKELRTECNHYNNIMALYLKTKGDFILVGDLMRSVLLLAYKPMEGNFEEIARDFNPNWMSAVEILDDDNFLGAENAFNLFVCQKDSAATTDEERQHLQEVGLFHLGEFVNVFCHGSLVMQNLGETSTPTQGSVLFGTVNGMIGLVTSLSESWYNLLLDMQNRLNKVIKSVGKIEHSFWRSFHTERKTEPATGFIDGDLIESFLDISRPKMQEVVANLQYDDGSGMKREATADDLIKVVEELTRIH
Measured property: DC50

>>> df
                                   compound        result
0  O=C1CCC(N2Cc3c(F)cc(COC(=O)Nc4cccc(OC(F)(F)F)c4)cc3C2=O)C(=O)N1 (stereo not drawn)  30 to 300 nM
1  COc1cc(COC(=O)Nc2ccc(N3CCCCC3C)nc2)cc2c1CN(C1CCC(=O)NC1=O)C2=O (stereo not drawn)       < 30 nM
2  O=C1CCC(N2Cc3c(F)cc(COC(=O)Nc4cc(F)cc(OC(F)(F)F)c4)cc3C2=O)C(=O)N1 (stereo not drawn)  30 to 300 nM
